- Organism: Rattus norvegicus
- Experiment: DrugMatrix - Regimen: Daily Repeat
- Assay type: toxicity, organism-based, Sprague-Dawley
- Design: regimen Daily Repeat, gender Male, age 6-8 weeks
- Run parameters: in vivo, po, 0 mg/kg, 72 h, tissue Blood, route oral GAVAGE, dose level Control, time 3 day, vehicle 100 % WATER
Recorded metric: LYMPHOCYTE (%)
The reply should contain only the number, in %.

Record excerpt, results attached:
The measured LYMPHOCYTE associated with CN(C)CC[C@@H](c1ccc(Cl)cc1)c1ccccn1 reads 91.67

The reported value for Cn1c(=O)c2[nH]cnc2n(C)c1=O.O in terms of LYMPHOCYTE is 89.83

LYMPHOCYTE reported for this molecule O.O.O.O.O.O.[Cl-].[Cl-].[Sr+2] [STRONTIUM CHLORIDE HEXAHYDRATE] : 89

For record CN(C)CCOC(c1ccccc1)c1ccccc1 [DIPHENHYDRAMINE] the listed LYMPHOCYTE is 88.5

Reported LYMPHOCYTE ( C[C@]12C=CC(=O)C=C1CC[C@@H]1[C@@H]2[C@@H](O)C[C@@]2(C)[C@H]1CC[C@]2(O)C(=O)CO ) = 85.5

The molecule listed as CC(C)(C)CC(C)(C)c1ccc(OCCOCC[N+](C)(C)Cc2ccccc2)cc1.[Cl-] [BENZETHONIUM CHLORIDE] shows LYMPHOCYTE equal to 88.5

The measured LYMPHOCYTE associated with CCN(CC)CCNC(=O)c1cc(S(C)(=O)=O)ccc1OC [TIAPRIDE] reads 89

The molecule identified as CS(=O)(=O)c1ccc([C@@H](O)[C@@H](CO)NC(=O)C(Cl)Cl)cc1 registered its LYMPHOCYTE at 89

Switching to the query record.
According to the records, this molecule CC(C)NCC(O)c1ccc(NS(C)(=O)=O)cc1 (centres undefined) displays LYMPHOCYTE of 89.33

---

- Organism: Rattus norvegicus
- Experiment: DrugMatrix - Regimen: Daily Repeat
- Format: toxicity, organism-based, Sprague-Dawley
- Parameters: regimen Daily Repeat, gender Male, age 6-8 weeks
- Run parameters: in vivo, sc, 0 mg/kg, 120 h, tissue Blood, route subcutaneous, dose level Control, time 5 day, […]
Recorded metric: MEAN CORPUSCULAR HEMOGLOBIN CONCENTRATION (G/DL)
API: value field is a number in G/DL; no unit string.

Field: example entries. Status: answers known.
Measured MEAN CORPUSCULAR HEMOGLOBIN CONCENTRATION of CCN(CC)CCOCCC1=CCC2CC1C2(C)C (centres undefined) : 39.9

// sample O=C(Nc1ccc(Br)cc1)c1cc(Br)cc(Br)c1O , its MEAN CORPUSCULAR HEMOGLOBIN CONCENTRATION was 36.98

The reported MEAN CORPUSCULAR HEMOGLOBIN CONCENTRATION of the compound CCC(=O)O[C@]1(C(=O)CCl)[C@@H](C)C[C@H]2[C@@H]3CCC4=CC(=O)C=C[C@]4(C)[C@@]3(F)[C@@H](O)C[C@@]21C [CLOBETASOL PROPIONATE] was 36.98

Turning now to a further compound:
Oc1c(Cl)cc(Cl)c(Cl)c1Cc1c(O)c(Cl)cc(Cl)c1Cl has a reported MEAN CORPUSCULAR HEMOGLOBIN CONCENTRATION of 37.8
